// data source = paper PMC10786891

The following binders are listed with their measured Kd values.
TARGET DESC: T1, EsCas13d, nuclease-dead (Eubacterium siraeum, UniProt B0MS50, R295A;H300A;R849A;H854A)
T1 sequence: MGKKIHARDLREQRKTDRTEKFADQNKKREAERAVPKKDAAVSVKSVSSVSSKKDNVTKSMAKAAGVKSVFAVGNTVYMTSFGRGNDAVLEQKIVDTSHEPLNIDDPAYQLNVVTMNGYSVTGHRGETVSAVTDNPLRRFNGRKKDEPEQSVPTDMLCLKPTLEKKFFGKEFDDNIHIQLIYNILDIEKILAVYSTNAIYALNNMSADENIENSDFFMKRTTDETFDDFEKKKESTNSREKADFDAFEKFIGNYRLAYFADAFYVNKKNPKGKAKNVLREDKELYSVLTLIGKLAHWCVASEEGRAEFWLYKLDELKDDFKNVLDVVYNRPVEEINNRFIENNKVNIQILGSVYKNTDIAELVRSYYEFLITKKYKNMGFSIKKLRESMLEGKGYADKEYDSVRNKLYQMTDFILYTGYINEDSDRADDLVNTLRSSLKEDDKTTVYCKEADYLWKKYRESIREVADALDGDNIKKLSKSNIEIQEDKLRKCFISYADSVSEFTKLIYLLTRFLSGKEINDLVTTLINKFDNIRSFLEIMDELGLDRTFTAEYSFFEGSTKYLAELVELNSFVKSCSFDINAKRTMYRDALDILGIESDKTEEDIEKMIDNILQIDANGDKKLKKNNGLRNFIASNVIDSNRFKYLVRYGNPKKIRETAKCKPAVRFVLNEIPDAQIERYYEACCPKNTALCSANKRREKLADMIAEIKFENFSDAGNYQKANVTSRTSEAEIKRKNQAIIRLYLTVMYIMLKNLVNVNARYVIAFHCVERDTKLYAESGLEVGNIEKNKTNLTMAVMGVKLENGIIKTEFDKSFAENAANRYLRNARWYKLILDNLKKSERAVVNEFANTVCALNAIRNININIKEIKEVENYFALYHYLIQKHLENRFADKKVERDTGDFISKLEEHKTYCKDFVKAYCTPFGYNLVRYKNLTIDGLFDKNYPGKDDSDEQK
ASSAY NAME: crRNA (strand 1, pre-loaded); Mg2+; 40 mM Tris-HCl pH 7.5, 150 mM NaCl, 6 mM MgCl2, 1 mM DTT, 0.1% Tween-20, 0.2 mg/ml BSA; 25 C; 10 min per concentration, then washed
SETTINGS: tags: His6-TwinStrep-SUMO cleaved; N-terminal SNAP kept (SNAP-Surface 488); label: 3' end held by stalled T7 RNA polymerase
Please respond with the number in nM and leave the unit unwritten.

BINDER	READOUT UNIT	Kd
target 3 G4A,U7G (mixed) RNA 1: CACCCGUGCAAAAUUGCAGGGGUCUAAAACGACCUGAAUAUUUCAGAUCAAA RNA 2: GGGAAUGGAUCCACAUCUACGAAUUCGUUUUUGAUCUGAAAUAUGCAAGUCUGCAGAUCGGAAGAGCACACGU	nM	30.2

Attention now turns to another entry.
Endpoint output: Kd of target 1 insU 3' of 22,insA 3' of 15 (mixed) RNA 1: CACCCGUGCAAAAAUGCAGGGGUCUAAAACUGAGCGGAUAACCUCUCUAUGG RNA 2: GGGAAUGGAUCCACAUCUACGAAUUCGUACUCAUAGAGAAGGUUAUCCGCUCACCGAGAUCGGAAGAGCACACGU . Value? 13.7
